The origin of these recorded values is paper PMC5540273.

- Tested on: MYO3B;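 note: KINOMEscan kinase panel screen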
- Measurement setup: concentration: 1 μM, replicates: in singlicate; n = 1
Recorded endpoint: %Inh (%)
Your answer should be a plain number; it is taken to be in %.

Look over these answered cases.
c1ccc(Oc2ccc(Nc3ccnc4cc(-c5ccc(CN6CCCCC6)o5)ccc34)cc2)nc1; 14
CN(c1ccc2c(c1)nc(NCc1ccccc1)n2C)c1ccnc(Nc2ccc(CS(C)(=O)=O)cc2)n1.Cl; 19

Q: Any idea what %Inh was measured for CS(=O)(=O)c1cccc(CNc2nc(Nc3ccc4c(c3)CCC(=O)N4)ncc2C(F)(F)F)c1 ?
A: 0

Q: Recorded %Inh of CCNc1nccc(-c2c(-c3ccc(F)cc3)ncn2C2CCN(C)CC2)n1 , please.
A: 0

Q: Requested field: %Inh. Item: COc1cccc(NC(=O)NCCNc2ccnc(Nc3ccc(F)cc3)n2)c1
A: 0

Q: Quick check: %Inh of CSc1ccc(NC2=C(c3ccc(Cl)cc3)C(=O)NC2=O)cc1 ?
A: 20

Q: If you can, please state the reported %Inh value of Cl.Cl.NCC(NC(=O)c1cc(-c2cccnc2)c(-c2ccnc3[nH]ccc23)s1)c1ccccc1 (centres unmarked) .
A: 0

Q: Suppose we examine the compound NCCC(NC(=O)c1cc(Br)c(-c2ccnc3[nH]ccc23)s1)c1ccccc1.O=C(O)C(F)(F)F.O=C(O)C(F)(F)F (centres unmarked) ; what %Inh value has been reported?
A: 0
